- Assay System: tiTac3rb (Oreochromis niloticus)
- Sequence (A0A075QUD7 1-361): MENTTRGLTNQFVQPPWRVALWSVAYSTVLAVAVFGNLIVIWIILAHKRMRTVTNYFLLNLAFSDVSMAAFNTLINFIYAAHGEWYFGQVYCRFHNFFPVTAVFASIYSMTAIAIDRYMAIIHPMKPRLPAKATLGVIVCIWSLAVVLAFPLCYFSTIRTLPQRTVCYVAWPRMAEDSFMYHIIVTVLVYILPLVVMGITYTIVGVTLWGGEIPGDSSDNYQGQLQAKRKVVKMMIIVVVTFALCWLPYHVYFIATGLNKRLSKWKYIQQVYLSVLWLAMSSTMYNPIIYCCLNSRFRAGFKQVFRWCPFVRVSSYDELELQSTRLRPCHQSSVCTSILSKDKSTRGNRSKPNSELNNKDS
- Test Method Notes: cell-based
- Conditions Used: EC50 tiTac3rb SRE, SRE-Luc reporter (PKC/Ca2+), COS-7 cells, mean ± SEM
Starred links: 1 amine or outer side, 2 acyl side, 3 side chain; linkers in the order of their positions; H or OH if unused. Non-standard residues stand in square brackets, D forms with d. Residues, ends and D or L forms follow the SMILES beside them. NMeF = CN[C@@H](Cc1ccccc1)C(=O)O; NMeI = CC[C@H](C)[C@H](NC)C(=O)O; Suc = O=C(CCC(=O)[*:2])[*:1]
Reported Endpoint: pEC50
Please note pEC50 is a logarithmic value: minus log10 of concentration in mol/L. Answer with that number alone.

The following compounds have reported results that may help.
Challenge: Please report the recorded pEC50 for CSCC[C@H](NC(=O)[C@H](CC(C)C)NC(=O)CNC(=O)[C@H](Cc1ccccc1)N(C)C(=O)[C@H](Cc1ccccc1)NC(=O)[C@H](CC(=O)O)NC(=O)CCC(=O)O)C(N)=O [Senktide] (Suc-DF[NMeF]GLM-NH2) .
Response given: 7.30

Challenge: What would you report for CSCC[C@H](NC(=O)[C@H](CC(C)C)NC(=O)CNC(=O)[C@H](C(C)C)N(C)C(=O)[C@H](Cc1ccccc1)NC(=O)[C@H](CO)NC(=O)[C@H](CC(=O)O)NC(=O)CCC(=O)O)C(N)=O [NKF analog] ?
Response given: 7.13

Challenge: And the next one, CSCC[C@H](NC(=O)[C@H](CC(C)C)NC(=O)CNC(=O)[C@@H](NC(=O)[C@H](Cc1ccccc1)NC(=O)[C@H](CO)NC(=O)[C@H](CC(=O)O)NC(=O)[C@H](Cc1ccc(O)cc1)NC(=O)[C@H](CC(=O)O)NC(=O)[C@H](CC(C)C)NC(=O)[C@H](CC(=O)O)NC(=O)[C@H](CC(N)=O)NC(=O)[C@@H](N)Cc1ccc(O)cc1)C(C)C)C(N)=O [tiNKF] (H-YNDLDYDSFVGLM-NH2) ?
Response given: 9.34

Now, please, on to the next compound.
Challenge: Consider the compound shown here: CC[C@H](C)[C@H](NC(=O)[C@H](CC(=O)O)NC(=O)CCC(=O)O)C(=O)N[C@@H](Cc1ccccc1)C(=O)N(C)[C@H](C(=O)NCC(=O)N[C@@H](CC(C)C)C(=O)N[C@@H](CCSC)C(N)=O)[C@@H](C)CC [tiNKB analog] (Suc-DIF[NMeI]GLM-NH2) What is its recorded pEC50?
Response given: 8.76
